The values you see were collected from paper PMC11375702.

- Assay comment: Plasma stability assay (mouse)
- Condition notes: male, Balb/c, mouse, plasma
Measured endpoint: half-life (h)
All answers are understood in h, so give the number only.

State the recorded half-life for this entry: CC1CC(OC(=O)C(O)c2ccccc2)CC(C)(C)N1C (centres unmarked) [eucatropine, reference compound]
1.87

* * *

- Assay system: CYP2D6 (Homo sapiens, UniProt P10635)
- Sequence (P10635 whole entry): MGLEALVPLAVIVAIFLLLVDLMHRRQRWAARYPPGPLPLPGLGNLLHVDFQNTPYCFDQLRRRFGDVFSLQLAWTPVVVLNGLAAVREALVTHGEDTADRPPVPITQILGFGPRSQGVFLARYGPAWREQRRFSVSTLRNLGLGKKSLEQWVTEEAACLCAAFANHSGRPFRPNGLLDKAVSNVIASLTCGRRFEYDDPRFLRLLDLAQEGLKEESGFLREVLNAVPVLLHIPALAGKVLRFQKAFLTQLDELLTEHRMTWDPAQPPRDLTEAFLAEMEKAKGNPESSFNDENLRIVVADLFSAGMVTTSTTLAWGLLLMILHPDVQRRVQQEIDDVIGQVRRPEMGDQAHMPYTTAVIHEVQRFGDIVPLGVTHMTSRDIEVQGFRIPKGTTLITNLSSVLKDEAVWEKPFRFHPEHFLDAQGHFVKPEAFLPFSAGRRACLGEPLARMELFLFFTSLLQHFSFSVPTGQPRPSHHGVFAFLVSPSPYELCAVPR
pIC50: −log10 of the molar value.
Measured endpoint: pIC50

What value of pIC50 on CYP2D6 (Homo sapiens, UniProt P10635) does CC(C)[C@@H](C)/C=C/[C@@H](C)[C@H]1CC[C@@H]2[C@]1(C)CC[C@H]1[C@]23C=C[C@]2(C[C@@H](O)CC[C@]12C)OO3 [Compound 2, Ergosterol peroxide] have?
< 4.60
